- Tested on: HCC-2998 colon
- procedure-details: NCI tumour cell line growth inhibition, 48 h
Kindly supply the reported GI50 values for the records listed here.

Answered examples (3):
{"compound": "N=C(N)c1ccc(COc2ccccc2OCc2ccc(C(=N)N)cc2)cc1", "GI50": "86.8 µM"}
{"compound": "COc1cc(C2CC(c3ccc(N(C)C)cc3)=NN2C(C)=O)cc(OC)c1OC (centres undefined)", "GI50": "2.61 µM"}
{"compound": "CCCCCCCOc1c(OC)cc(C2CC(=O)Nc3c2c(C)nn3-c2nc3ccccc3[nH]2)cc1OC (centres undefined)", "GI50": "74.1 µM"}

Let us examine a further case.
// query GI50 value for entry COC(=O)C1=C(OC(=O)c2ccc(Cl)cc2)C(C(=O)OC)[C@@]2(O)[C@@H](C(=O)OC)C(c3ccccc3Cl)C[C@@H]1[C@@H]2C(=O)OC (some centres undefined)
14.3 µM
